- Tested on: rice (Oryza saliva)
- Experiment Description: Test C flooded paddy test
- Type: in vivo
- Condition Details: Flooded Paddy; Rate 500 g/ha; scale 0 to 100, 0 no effect, 100 complete control
Listed here are molecules together with their documented Rice plant response rating.
Readout: Rice plant response rating

>  <Molecule>
CCC(C)c1ccn(C2CCN(c3cccc(OC(C)C)c3)C2=O)n1 (centres unmarked) [Compound 83]

>  <Readout>
Rice plant response rating

>  <Reported Value>
80

$$$$
>  <Molecule>
CC(C)(C)c1ccn(C2CCN(c3cccc(C(F)(F)F)c3)C2=S)n1 (centres unmarked) [Compound 22]

>  <Readout>
Rice plant response rating

>  <Reported Value>
40

$$$$
>  <Molecule>
Cc1cc(N2CCC(n3ccc(C(C)(C)C)n3)C2=O)cc(Br)c1C (centres unmarked) [Compound 77]

>  <Readout>
Rice plant response rating

>  <Reported Value>
30

$$$$
>  <Molecule>
CCC(C)c1ccn(C2CCN(c3ccc(Br)c(OC)c3)C2=O)n1 (centres unmarked) [Compound 142]

>  <Readout>
Rice plant response rating

>  <Reported Value>
55

$$$$
>  <Molecule>
CCCCC(CCCC)c1ccn(C2SCN(c3cccc(C(F)(F)F)c3)C2=O)n1 (centres unmarked) [Compound 116]

>  <Readout>
Rice plant response rating

>  <Reported Value>
0

$$$$

###

- Test system: pigweed (Amaranthus retroflexus)
- Experiment Description: Test B preemergence
- Type: in vivo
- Condition Details: preemergence; Rate 125 g/ha; scale of 0 to 100 where 0 is no effect and 100 is complete control; 13 to 15 days

>  <Compound>
CCCC(C)c1ccn(C2SCN(c3cccc(OC(F)(F)F)c3)C2=O)n1 (centres unmarked)

>  <Plant response rating, Pigweed>
80

$$$$
>  <Compound>
CCCC(C)c1ccn(C2CCN(c3ccc(Cl)c(OC)c3)C2=O)n1 (centres unmarked)

>  <Plant response rating, Pigweed>
100

$$$$
>  <Compound>
CCCCC(CCCC)c1ccn(C2OCN(c3cccc(OC(F)(F)F)c3)C2=O)n1 (centres unmarked)

>  <Plant response rating, Pigweed>
0

$$$$
>  <Compound>
Cc1ccc(N2CCC(n3ccc(C(C)(C)C)n3)C2=O)cc1OC(C)C (centres unmarked)

>  <Plant response rating, Pigweed>
100

$$$$
>  <Compound>
CCCOc1cc(N2CCC(n3ccc(C(C)(C)C)n3)C2=O)ccc1C (centres unmarked)

>  <Plant response rating, Pigweed>
80

$$$$

###

- Test system: barnyardgrass (Echinochloa crus-galli)
- Experiment Description: Test C flooded paddy test
- Type: in vivo
- Condition Details: flooded paddy test, Rate 125 g/ha; scale 0 to 100 (0 no effect, 100 complete control)
Rule: measured Plant response rating, Barnyardgrass below 80 gets 1.0; anything equal to or greater than 80 gets 0.0.

>  <Compound>
CCC(C)c1ccn(C2SCN(c3cccc(OC(F)(F)F)c3)C2=O)n1 (stereo not drawn) [Compound 40]

>  <Class Label>
0.0

$$$$
>  <Compound>
CC(C)(C)C1=NN(C2CCN(c3cccc(C(F)(F)F)c3)C2=O)CC1 (stereo not drawn) [Compound 135]

>  <Class Label>
1.0

$$$$
>  <Compound>
CC(C)(C)c1ccn(C2CCN(c3cccc(S(C)(=O)=O)c3)C2=O)n1 (stereo not drawn) [Compound 102]

>  <Class Label>
1.0

$$$$
>  <Compound>
Cc1ccn(C2SCN(c3cccc(C(F)(F)F)c3)C2=O)n1 (stereo not drawn) [Compound 19]

>  <Class Label>
1.0

$$$$
>  <Compound>
CC(C)(C)c1ccn(C2CCN(c3ccc(Cl)c(Br)c3)C2=O)n1 (stereo not drawn) [Compound 56]

>  <Class Label>
1.0

$$$$
>  <Compound>
CCOc1cccc(N2CCC(n3ccc(C(C)(C)C)n3)C2=O)c1 (stereo not drawn) [Compound 130]

>  <Class Label>
0.0

$$$$
>  <Compound>
CC1(C)CCc2cn(C3CCN(c4cccc(C(F)(F)F)c4)C3=O)nc21 (stereo not drawn) [Compound 10]

>  <Class Label>
1.0

$$$$
>  <Compound>
CC(C)(C)c1ccn(C2CCN(c3cccc(SC(F)(F)F)c3)C2=O)n1 (stereo not drawn) [Compound 93]

>  <Class Label>
1.0

$$$$

###

- Tested on: crabgrass (Digitaria sanguinalis)
- Experiment Description: Test B postemergence
- Assay type: in vivo
- Condition Details: Rate 125 g/ha, scale 0 (no effect) to 100 (complete control), 13 to 15 days
Readout: Plant response rating, Crabgrass

>  <Compound>
CCC(CC)c1ccn(C2SCN(c3cccc(C(F)(F)F)c3)C2=O)n1 (centres unmarked)

>  <Reported Value>
30

$$$$
>  <Compound>
CC(C)(C)c1ccn(C2CCN(c3cccc(OC(F)(F)C(F)F)c3)C2=O)n1 (centres unmarked)

>  <Reported Value>
0

$$$$
>  <Compound>
CC(C)(C)c1ccn(C2SCN(c3cccc(OC(F)F)c3)C2=O)n1 (centres unmarked)

>  <Reported Value>
80

$$$$
>  <Compound>
CC(C)(C)c1ccn(C2CCN(c3cccc(C(F)(F)F)c3)C2=S)n1 (centres unmarked)

>  <Reported Value>
40

$$$$
>  <Compound>
CCCCC(C)c1ccn(C2OCN(c3cccc(C(F)(F)F)c3)C2=O)n1 (centres unmarked)

>  <Reported Value>
0

$$$$
>  <Compound>
CC(C)(C)c1nn(C2CCN(c3cccc(C(F)(F)F)c3)C2=O)cc1Cl (centres unmarked)

>  <Reported Value>
50

$$$$
>  <Compound>
CC(C)Oc1cccc(N2CCC(n3ccc(C(C)(C)C)n3)C2=O)c1 (centres unmarked)

>  <Reported Value>
0

$$$$
>  <Compound>
CC1(C)CCc2cn(C3CCN(c4cccc(C(F)(F)F)c4)C3=O)nc21 (centres unmarked)

>  <Reported Value>
0

$$$$

###

Listed here are compounds together with their documented Ducksalad plant response rating.
- Test system: duck salad (Heteranthera limosa)
- Experiment Description: Test C flooded paddy test
- Type: in vivo
- Condition Details: Flooded Paddy; Rate 500 g/ha; scale 0 to 100, 0 no effect, 100 complete control

>  <Compound>
CCC(CC)c1ccn(C2CCN(c3ccc(Br)c(OC)c3)C2=O)n1 (stereo not drawn) [Compound 143]

>  <Ducksalad plant response rating>
100

$$$$
>  <Compound>
COc1cc(N2CCC(n3ccc(C(C)(C)C)n3)C2=O)ccc1C (stereo not drawn) [Compound 42]

>  <Ducksalad plant response rating>
100

$$$$
>  <Compound>
CC(C)(C)c1ccn(C2CCN(c3cccc(C#N)c3)C2=O)n1 (stereo not drawn) [Compound 104]

>  <Ducksalad plant response rating>
0

$$$$
>  <Compound>
CCCOc1cc(N2CCC(n3ccc(C(C)(C)C)n3)C2=O)ccc1C (stereo not drawn) [Compound 107]

>  <Ducksalad plant response rating>
70

$$$$
>  <Compound>
CC1(c2ccn(C3OCN(c4cccc(C(F)(F)F)c4)C3=O)n2)CC1 (stereo not drawn) [Compound 62]

>  <Ducksalad plant response rating>
0

$$$$
>  <Compound>
O=C1C(n2ccc(C3CCC3)n2)SCN1c1cccc(OC(F)F)c1 (stereo not drawn) [Compound 45]

>  <Ducksalad plant response rating>
100

$$$$

###

- System: goosegrass (Eleusine indica)
- Experiment Description: Test C preemergence
- Type: in vivo
- Condition Details: Rate 62 g/ha; scale 0 to 100, 0 no effect, 100 complete control

>  <Molecule>
CC(C)(C)c1ccn(C2SCN(c3cccc(OC(F)F)c3)C2=O)n1 (stereo not shown) [Compound 36]

>  <Assay System>
goosegrass (Eleusine indica)

>  <Plant response rating, Goosegrass>
100

$$$$
>  <Molecule>
CC1(c2ccn(C3SCN(c4cccc(OC(F)(F)F)c4)C3=O)n2)CC1 (stereo not shown) [Compound 63]

>  <Assay System>
goosegrass (Eleusine indica)

>  <Plant response rating, Goosegrass>
100

$$$$
>  <Molecule>
O=C1C(n2ccc(C3CCC3)n2)SCN1c1cccc(OC(F)F)c1 (stereo not shown) [Compound 45]

>  <Assay System>
goosegrass (Eleusine indica)

>  <Plant response rating, Goosegrass>
90

$$$$
>  <Molecule>
CC(C)(C)c1ccn(C2CCN(c3cccc(Cl)c3)C2=O)n1 (stereo not shown) [Compound 43]

>  <Assay System>
goosegrass (Eleusine indica)

>  <Plant response rating, Goosegrass>
50

$$$$

###

- System: morningglory (Ipomoea hederacea)
- Experiment Description: Test C preemergence
- Type: in vivo
- Condition Details: preemergence, Rate 500 g/ha, visual evaluation after 12 to 14 days
Listed here are molecules together with their documented Plant response rating (0 to 100), Morningglory.
Readout: Plant response rating (0 to 100), Morningglory

>  <Molecule>
CCCC(C)c1ccn(C2OCN(c3cccc(OC(F)F)c3)C2=O)n1 (centres unmarked)

>  <Assay System>
morningglory (Ipomoea hederacea)

>  <Reported Value>
0

$$$$
>  <Molecule>
COc1cc(N2CCC(n3ccc(C(C)C)n3)C2=O)ccc1C (centres unmarked)

>  <Assay System>
morningglory (Ipomoea hederacea)

>  <Reported Value>
100

$$$$
>  <Molecule>
CCCC(C)c1ccn(C2CCN(c3cccc(C(F)(F)F)c3)C2=O)n1 (centres unmarked)

>  <Assay System>
morningglory (Ipomoea hederacea)

>  <Reported Value>
0

$$$$
>  <Molecule>
CCC(C)c1ccn(C2CCN(c3ccc(Cl)c(OC)c3)C2=O)n1 (centres unmarked)

>  <Assay System>
morningglory (Ipomoea hederacea)

>  <Reported Value>
100

$$$$
>  <Molecule>
CCCC(C)c1ccn(C2CCN(c3cccc(OCC)c3)C2=O)n1 (centres unmarked)

>  <Assay System>
morningglory (Ipomoea hederacea)

>  <Reported Value>
0

$$$$
